System: poly(dA-dT)2 (DNA, polymer) AT
measurement.description: ethidium bromide displacement, fluorescence
measurement.conditions: apparent; room temperature; ethidium bromide displaced; compound 10, 50, 100 µM
measured.attribute: Kapp

> print(dat)
                         compound.structure  measured.attribute         value.measured
1    COc1cc(C(=O)Nc2ccc(N)c(I)c2)cc(OC)c1OC                Kapp  3.1 ± 0.2 × 10^5 M^−1
2  COc1cc(NC(=O)/C=C/c2cc(OC)c(OC)c(OC)c2)ccc1N                Kapp  8.9 ± 0.2 × 10^5 M^−1
3  COc1cc(/C=C/C(=O)Nc2ccc(N)cc2)cc(OC)c1OC                Kapp  4.0 ± 0.2 × 10^5 M^−1
4       COc1cc(C(=O)Nc2ccc(N)nc2)cc(OC)c1OC                Kapp  2.5 ± 0.2 × 10^5 M^−1
5  COc1cc(/C=C/C(=O)Nc2cnc(N)nc2)cc(OC)c1OC                Kapp  1.5 ± 0.2 × 10^5 M^−1

// lookup Kapp for `COc1cc(C(=O)Nc2ccc(F)c(N)c2)cc(OC)c1OC`
1.9 ± 0.2 × 10^5 M^−1

Try `COc1cc(C(=O)Nc2cc(N)ccc2Cl)cc(OC)c1OC` next.
1.3 ± 0.2 × 10^5 M^−1

Another compound to look at: `COc1cc(OC)cc(C(=O)Nc2cnc(N)nc2)c1`
1.1 ± 0.2 × 10^5 M^−1

Also `COc1cccc(C(=O)Nc2cnc(N)nc2)c1` , if possible.
2.6 ± 0.2 × 10^5 M^−1

Next compound up: `COc1cc(/C=C/C(=O)Nc2ccc(F)c(N)c2)cc(OC)c1OC`
0.5 ± 0.2 × 10^5 M^−1

What do we get for `COc1ccc(C(=O)Nc2ccc(N)nc2)cc1OC` ?
3.1 ± 0.2 × 10^5 M^−1

Please do the same for `COc1cc(/C=C/C(=O)Nc2ccc(N)c(I)c2)cc(OC)c1OC` as well.
4.5 ± 0.2 × 10^5 M^−1

Param item: `COc1cc(/C=C/C(=O)Nc2ccc(Cl)c(N)c2)cc(OC)c1OC`
2.7 ± 0.2 × 10^5 M^−1

###

# Decrease of Fluorescence listing for each entry below
System: pBR322 plasmid
measurement.description: Ethidium bromide assay, DNA-binding effect on plasmid pBR322
measurement.conditions: % fluorescence relative to controls
State just the number; it will be interpreted in %.

> print(dat)
                                   molecule     measured.on        measured.attribute  value.measured
1  CN(Cc1cnc2nc(N)nc(N)c2n1)c1ccc(C(=O)N[C@@H](CCC(=O)O)C(=O)O)cc1 [MTX, methotrexate, reference compound]  pBR322 plasmid  Decrease of Fluorescence             100
2         COc1cc(OC)cc(C(=O)Nc2cnc(N)nc2)c1  pBR322 plasmid  Decrease of Fluorescence           70.11

// map `COc1cc(NC(=O)/C=C/c2cc(OC)c(OC)c(OC)c2)ccc1N` to recorded Decrease of Fluorescence (system: pBR322 plasmid)
43.85

Note, next up: `COc1cc(C(=O)Nc2ccc(F)c(N)c2)cc(OC)c1OC`
52.89

Same read-out for `COc1cc(/C=C/C(=O)Nc2cnc(N)nc2)cc(OC)c1OC` ?
60.11

Now consider `COc1cc(/C=C/C(=O)Nc2ccc(F)c(N)c2)cc(OC)c1OC` and answer again.
41.68

###

Tested on: poly(dG-dC)2 (DNA, polymer) GC
measurement.description: ethidium bromide displacement, fluorescence
measurement.conditions: apparent; room temperature; ethidium bromide displaced; compound 10, 50, 100 µM
measured.attribute: Kapp

Recorded results for 5 molecules are shown here.
> print(dat)
                         compound.structure         value.measured
1             COc1cccc(C(=O)Nc2cnc(N)nc2)c1  2.5 ± 0.2 × 10^5 M^−1
2  COc1cc(/C=C/C(=O)Nc2ccc(N)nc2)cc(OC)c1OC  2.4 ± 0.2 × 10^5 M^−1
3  COc1cc(/C=C/C(=O)Nc2ccc(F)c(N)c2)cc(OC)c1OC  2.5 ± 0.2 × 10^5 M^−1
4      COc1cc(C(=O)Nc2cc(N)ccc2F)cc(OC)c1OC  5.3 ± 0.2 × 10^5 M^−1
5           COc1ccc(C(=O)Nc2ccc(N)nc2)cc1OC  3.5 ± 0.2 × 10^5 M^−1

Item `COc1cc(/C=C/C(=O)Nc2ccc(N)c(I)c2)cc(OC)c1OC` has what recorded Kapp?
4.6 ± 0.2 × 10^5 M^−1

Please answer likewise for `COc1cc(C(=O)Nc2cc(N)ccc2Cl)cc(OC)c1OC`
2.3 ± 0.2 × 10^5 M^−1

###

Tested on: poly(dG-dC)2 (DNA, polymer) GC
measurement.description: ethidium bromide displacement, fluorescence
measurement.conditions: apparent; room temperature; ethidium bromide displaced; compound 10, 50, 100 µM
The following compounds are shown together with reported Kapp values.

Check out these entries, answers already filled in.
> print(dat)
                         compound.structure         value.measured
1  COc1cc(/C=C/C(=O)Nc2cnc(N)nc2)cc(OC)c1OC  2.1 ± 0.2 × 10^5 M^−1
2    COc1cc(C(=O)Nc2ccc(N)c(I)c2)cc(OC)c1OC  3.6 ± 0.2 × 10^5 M^−1
3   COc1cc(C(=O)Nc2ccc(N)c(Cl)c2)cc(OC)c1OC  1.3 ± 0.2 × 10^5 M^−1
4  COc1cc(/C=C/C(=O)Nc2ccc(Cl)c(N)c2)cc(OC)c1OC  3.8 ± 0.2 × 10^5 M^−1
5  COc1cc(NC(=O)/C=C/c2cc(OC)c(OC)c(OC)c2)ccc1N  4.2 ± 0.2 × 10^5 M^−1

// returns reported Kapp for input `COc1cc(OC)cc(C(=O)Nc2cnc(N)nc2)c1`
4.7 ± 0.2 × 10^5 M^−1

Subsequent entry: `COc1cc(C(=O)Nc2ccc(N)nc2)cc(OC)c1OC`
4.8 ± 0.2 × 10^5 M^−1

Also check `COc1cccc(C(=O)Nc2ccc(N)nc2)c1`
1.5 ± 0.2 × 10^5 M^−1

###

Test system: poly(dA-dT)2 (DNA, polymer) AT
measurement.description: ethidium bromide displacement, fluorescence
measurement.conditions: apparent; room temperature; ethidium bromide displaced; compound 10, 50, 100 µM
Entries and their Kapp values follow.

> print(dat)
                     compound.structure  measured.attribute         value.measured
1     COc1cc(OC)cc(C(=O)Nc2ccc(N)nc2)c1                Kapp  3.4 ± 0.2 × 10^5 M^−1
2         COc1cccc(C(=O)Nc2ccc(N)nc2)c1                Kapp  3.9 ± 0.2 × 10^5 M^−1
3  COc1cc(C(=O)Nc2cc(N)ccc2F)cc(OC)c1OC                Kapp  4.3 ± 0.2 × 10^5 M^−1

What value of Kapp has been reported for the following compound? `COc1cc(/C=C/C(=O)Nc2ccc(N)nc2)cc(OC)c1OC`
3.1 ± 0.2 × 10^5 M^−1

Next compound: `COc1cc(C(=O)Nc2ccc(N)c(Cl)c2)cc(OC)c1OC`
2.1 ± 0.2 × 10^5 M^−1

###

Tested on: poly(dG-dC)2
measurement.description: Ethidium displacement assay, apparent binding constant, poly(dG-dC)2
measurement.conditions: apparent association constant, ± 0.2 × 10^5 M^−1
Kapp poly (dG-dC)2 by entry:
Give just the numeric value; M⁻¹ need not be written.

> print(dat)
                                   compound  measured.attribute  value.measured
1  COc1cc(C(=O)Nc2ccc(N)nc2)cc(OC)c1OC [Compound 6]  Kapp poly (dG-dC)2          480000
2  COc1cccc(C(=O)Nc2cnc(N)nc2)c1 [Compound 11]  Kapp poly (dG-dC)2          250000
3  COc1cc(/C=C/C(=O)Nc2cnc(N)nc2)cc(OC)c1OC [Compound 12]  Kapp poly (dG-dC)2          210000
4  COc1cccc(C(=O)Nc2ccc(N)nc2)c1 [Compound 9]  Kapp poly (dG-dC)2          150000
5  COc1cc(C(=O)Nc2ccc(N)c(I)c2)cc(OC)c1OC [Compound 1]  Kapp poly (dG-dC)2          360000

Endpoint output: Kapp poly (dG-dC)2 of COc1cc(/C=C/C(=O)Nc2ccc(N)nc2)cc(OC)c1OC [Compound 15] . Value?
240000

And for COc1cc(C(=O)Nc2cc(N)ccc2F)cc(OC)c1OC [Compound 3] ?
530000

Try this compound next: COc1cc(NC(=O)/C=C/c2cc(OC)c(OC)c(OC)c2)ccc1N [Compound 14]
420000
